meta.source: the supplement of paper PMC6992640

tested on: WHIM2 (cells of a triple-negative basal-like breast cancer xenograft); experiment: cell viability (% of vehicle); higher = less cytotoxic; conditions: 10 µM; 72 h;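 further: PDX cells carrying CMV promoter-driven luciferase, viability read as total photon flux per second by IVIS imaging following D-luciferin, vehicle control 0.1% DMSO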
Measured Attribute: cell viability
// no unit, no text: just the number

// known answers, use as guide
1) NC(=O)CN1CC(O)CC1=O (stereo not drawn) [Oxiracetam] ... 112
2) C#CC1(O)C=CC2C3CCC4=CC(=O)CCC4C3CCC21CC (stereo not drawn) [Gestodene] ... 106
3) CC(NC(C)(C)C)C(=O)c1cccc(Cl)c1.Cl (stereo not drawn) [Bupropion hydrochloride] ... 104

Input: Look up cell viability with WHIM2 for this molecule: Cc1cccc(C(C)c2cnc[nH]2)c1C.Cl (stereo not drawn) [Medetomidine HCl]
Output: 89.3

Input: Look up cell viability with WHIM2 for this molecule: C[C@]12COC(=O)C[C@@H]1CC[C@@H]1[C@@H]2CC[C@@]2(C)[C@H]1CC[C@]2(C)O [Oxandrolone]
Output: 110

---

Each record here notes measured cell viability.
test system: UCD52 (cells of a triple-negative basal-like breast cancer xenograft); assay: cell viability (% of vehicle); higher = less cytotoxic; conditions: 10 µM; 72 h
// no unit, no text: just the number

// known answers, use as guide
1. Cc1cccc(C(C)c2cnc[nH]2)c1C.Cl (configuration not stated) [Medetomidine HCl] ... 87.4
2. Cn1cc(C2=C(c3cn(C4CCN(Cc5ccccn5)CC4)c4ccccc34)C(=O)NC2=O)c2ccccc21 ... 49
3. CN(C)C1C(=O)C(C(N)=O)=C(O)C2(O)C(=O)C3=C(O)c4c(O)cccc4C(C)(O)C3C(O)C12 (configuration not stated) ... 99.8

Input: Look up cell viability with UCD52 for this molecule: Cc1cc(C(C#N)c2ccc(Cl)cc2)c(Cl)cc1NC(=O)c1cc(I)cc(I)c1O (configuration not stated)
Output: 61.5

Input: Look up cell viability with UCD52 for this molecule: `Cc1cc(O)ccc1Cl`
Output: 87.1

Input: Look up cell viability with UCD52 for this molecule: CN(C)C(=O)C(CCN1CCC(O)(c2ccc(Cl)cc2)CC1)(c1ccccc1)c1ccccc1.Cl [Loperamide HCl]
Output: 49.1

Input: Look up cell viability with UCD52 for this molecule: CC(C)c1c(CN(C)C(C)Cc2ccccc2)n(C)n(-c2ccccc2)c1=O (configuration not stated)
Output: 87.7

Input: Look up cell viability with UCD52 for this molecule: `CC(=O)O[C@@]12CO[C@@H]1C[C@@H](O)[C@@]1(C)C(=O)[C@@H](O)C3=C(C)[C@@H](O)C[C@@](O)([C@@H](OC(=O)c4ccccc4)[C@H]21)C3(C)C`
Output: 79.2

Input: Look up cell viability with UCD52 for this molecule: COc1cc2c(c(OC)c1OC)-c1ccc(OC)c(=O)cc1C(NC(C)=O)CC2 (configuration not stated)
Output: 146

Input: Look up cell viability with UCD52 for this molecule: Cl.NCC(O)c1ccc(O)cc1 (racemic) [(+,-)-Octopamine HCl]
Output: 91.1

Input: Look up cell viability with UCD52 for this molecule: NCCC(O)(P(=O)([O-])O)P(=O)([O-])O.[Na+].[Na+] [Pamidronate Disodium]
Output: 76.4

Input: Look up cell viability with UCD52 for this molecule: C=CCN1CCC23c4c5ccc(O)c4OC2C(=O)CCC3(O)C1C5.Cl (configuration not stated) [Naloxone HCl]
Output: 74.1

Input: Look up cell viability with UCD52 for this molecule: O=c1[nH]c2ccccc2n1C1CCN(CCCC(c2ccc(F)cc2)c2ccc(F)cc2)CC1 [Pimozide]
Output: 86.7

Input: Look up cell viability with UCD52 for this molecule: CCC(C(N)=O)N1CCCC1=O (configuration not stated)
Output: 126

Input: Look up cell viability with UCD52 for this molecule: NC(Cc1ccc(N(CCCl)CCCl)cc1)C(=O)O (configuration not stated)
Output: 75.3

Input: Look up cell viability with UCD52 for this molecule: `CC(C)N(CCNC(=O)CN1CCCC1=O)C(C)C`
Output: 108

Input: Look up cell viability with UCD52 for this molecule: CC12CCC3C(CC=C4CC(O)CCC43C)C1CCC2=O (configuration not stated) [Dehydroepiandrosterone (DHEA)]
Output: 98.2

---

system: WHIM2; test: cell viability (% of vehicle); higher = less cytotoxic; conditions: 10 µM; 72 h
// assign T if cell viability falls strictly below 100, else F (ties count as F)

Record excerpt, results attached:
1. NC(Cc1ccc(N(CCCl)CCCl)cc1)C(=O)O (stereo not drawn) ... T
2. Br.CN1C2CC(OC(=O)C(CO)c3ccccc3)CC1C1OC12 (stereo not drawn) [Scopolamine hydrobromide] ... F
3. O=P1(NCCCl)OCCCN1CCCl (stereo not drawn) [Ifosfamide] ... T
4. CCCCCCCCCCCC[N+](C)(C)CCOc1ccccc1.[Br-] [Domiphen Bromide] ... T
5. CC12CCC3C(CC=C4CC(O)CCC43C)C1CCC2=O (stereo not drawn) [Dehydroepiandrosterone (DHEA)] ... T
6. CCC[C@H](C)[C@@]1(CC)C(=O)N=C([O-])NC1=O.[Na+] [Pentobarbital sodium salt] ... T
7. Cl.NCC(O)c1ccc(O)cc1 (racemic) [(+,-)-Octopamine HCl] ... T
8. CCC1(c2ccc(N)cc2)CCC(=O)NC1=O (stereo not drawn) [Aminoglutethimide] ... T
9. Cc1cccc(C)c1NC1=NCCCS1.Cl [Xylazine HCl] ... F
10. Cc1cc(C(C#N)c2ccc(Cl)cc2)c(Cl)cc1NC(=O)c1cc(I)cc(I)c1O (stereo not drawn) ... T

Input: Problem: For the molecule Cc1cccc(C(C)c2cnc[nH]2)c1C (stereo not drawn) , is cell viability under 100?
Output: F

Input: Problem: For the molecule `O=c1[nH]c2ccccc2n1CCCN1CCC(n2c(=O)[nH]c3cc(Cl)ccc32)CC1` , is cell viability under 100?
Output: T
